Molecular target: Kappa-type opioid receptor (Homo sapiens)
Sequence (P41145 whole entry): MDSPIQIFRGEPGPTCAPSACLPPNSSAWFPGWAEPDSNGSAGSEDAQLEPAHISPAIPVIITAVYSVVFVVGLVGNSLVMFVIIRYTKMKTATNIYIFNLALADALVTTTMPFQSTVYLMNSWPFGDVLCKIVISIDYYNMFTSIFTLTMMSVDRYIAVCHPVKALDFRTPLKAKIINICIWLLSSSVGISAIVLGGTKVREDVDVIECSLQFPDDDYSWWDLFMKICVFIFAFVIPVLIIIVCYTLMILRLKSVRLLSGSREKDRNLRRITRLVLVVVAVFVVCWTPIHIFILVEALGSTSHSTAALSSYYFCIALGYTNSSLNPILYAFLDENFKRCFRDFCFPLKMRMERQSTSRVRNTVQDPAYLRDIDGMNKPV
Test: Agonist activity at human kappa opioid receptor expressed in CHO cell membranes incubated for 60 mins by [35S]GTPgammaS binding assay
Listed molecules paired with reported pEC50
Please treat pEC50 as minus the base-10 logarithm of the molar concentration.

The cases that follow already have their pEC50 on record.
> print(dat)
                     line.notation  obs.value
1  CCCCCN(CCc1ccccc1)CCc1cccc(O)c1       7.06
2    CCCN(CCc1ccccc1)CCc1cccc(O)c1       7.31
3   CCCCN(CCc1ccccc1)CCc1cccc(O)c1       7.34

Next, consider the following molecule.
pEC50 in this record for CCCCCCN(CCc1ccccc1)CCc1cccc(O)c1 : 6.19

src = ChEMBL document CHEMBL2177058
